- TARGET_OR_TEST_SYSTEM: Sa-FtsZ (Staphylococcus aureus, UniProt P0A031)
- Type: biochemical
- MEASUREMENT_PARAMETERS: GTPase assay; read-out: FtsZ in vitro IC50 μM Sa-FtsZ

| RECORD_SMILES | IC50 / µM |
| --- | --- |
| COc1cc(C/C=C(/Cl)Cc2cc(O)cc(O)c2)c(OC)cc1Cl | 44 |
| Oc1cc(O)cc(C/C(Cl)=C\Cc2cc(O)c(Cl)cc2O)c1 | 88 |

----------
- TARGET_OR_TEST_SYSTEM: recombinant E. coli FtsZ (Escherichia coli (strain K12), UniProt P0A9A6)
- Sequence (P0A9A6 whole entry, looked up): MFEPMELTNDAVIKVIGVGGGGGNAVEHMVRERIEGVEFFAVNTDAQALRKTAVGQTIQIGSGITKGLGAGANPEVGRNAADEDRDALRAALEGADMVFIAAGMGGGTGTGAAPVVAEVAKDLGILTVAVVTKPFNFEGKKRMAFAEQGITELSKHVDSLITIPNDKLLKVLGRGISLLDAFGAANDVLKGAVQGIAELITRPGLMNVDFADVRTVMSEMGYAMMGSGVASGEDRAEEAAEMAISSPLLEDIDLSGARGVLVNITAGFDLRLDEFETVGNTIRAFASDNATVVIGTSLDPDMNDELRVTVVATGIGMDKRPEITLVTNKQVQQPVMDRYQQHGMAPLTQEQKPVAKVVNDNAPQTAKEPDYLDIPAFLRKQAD
- TEST_DESCRIPTION: FtsZ GTPase assay (malachite green)
- MEASUREMENT_PARAMETERS: read-out: FtsZ in vitro IC50 μM Ec-FtsZ
READOUT: IC50 (µM)

| RECORD_SMILES | READOUT | QUANTITATIVE_RESULT |
| --- | --- | --- |
| COc1cc(C/C=C(/Cl)Cc2cc(O)cc(O)c2)c(OC)cc1Cl | IC50 | 36 |
| Oc1cc(O)cc(C/C(Cl)=C\Cc2cc(O)c(Cl)cc2O)c1 | IC50 | 160 |
